Reported OD450 by item:
# MEASURED TARGET: T1, Peptide 8: Biotin-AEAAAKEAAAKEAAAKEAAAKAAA-Tyr-acid (N-terminal biotin; C-terminal acid)
# T1 construct: Control peptide without PC
# T1 peptide: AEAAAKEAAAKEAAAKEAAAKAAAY
# TEST METHOD NOTES: scFv ELISA
Report the value in OD450 with no unit label.

{"columns": ["BINDER", "UNITS", "NUMERIC VALUE"],
 "data": [
  ["PcOxP_DB03_G11 (scFv, V domains shown, scFv in periplasmic extract) VH: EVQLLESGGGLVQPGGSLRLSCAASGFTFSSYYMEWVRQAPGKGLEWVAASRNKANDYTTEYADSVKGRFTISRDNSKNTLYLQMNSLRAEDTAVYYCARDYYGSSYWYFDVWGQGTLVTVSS VL: DIVMTQSPDSLAVSLGERATINCKSSQSVLSSKHKKNYLAWYQQKPGQPPKLLIYGASNRYIGVPDRFSGSGSGTDFTLTISSLQAEDVAVYYCAQFYSYPLTFGGGTKVEIK", "OD450", 0.05],
  ["PcOxP_DB03_G12 (scFv, V domains shown, scFv in periplasmic extract) VH: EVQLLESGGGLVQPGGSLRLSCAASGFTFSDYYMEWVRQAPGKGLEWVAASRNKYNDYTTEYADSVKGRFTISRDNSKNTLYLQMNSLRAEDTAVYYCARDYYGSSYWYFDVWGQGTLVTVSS VL: DIVMTQSPDSLAVSLGERATINCKSSESVYSSKHKKHYLAWYQQKPGQPPKLLIYGASNRYIGVPDRFSGSGSGTDFTLTISSLQAEDVAVYYCAQFYSYPLTFGGGTKVEIK", "OD450", 0.05]
]}

Read the next record carefully.
Query string: Need OD450 of PcOxP_DB03_G01 (scFv, V domains shown, scFv in periplasmic extract) VH: EVQLLESGGGLVQPGGSLRLSCAASGFTFSDGYMEWVRQAPGKGLEWVAASRNKANFYTTEYADSVKGRFTISRDNSKNTLYLQMNSLRAEDTAVYYCARDHYGSSYWYFDVWGQGTLVTVSS VL: DIVMTQSPDSLAVSLGERATINCTASESLYSSKHKVHYLAWYQQKPGQPPKLLIYGASNRYIGVPDRFSGSGSGTDFTLTISSLQAEDVAVYYCAQFYNYPLTFGGGTKVEIK , thanks.
Result string: 0.05

Origin of values: patent US20250320312A1
